Below is a list of entries, each paired with its recorded inhibition value.
# experiment: A qHTS for Small Molecule Inhibitors of Shiga Toxin; also: 0% is about no effect
# experimental parameters: Vero cells, Shiga toxin protein synthesis inhibition reporter; at 38.7 µM, active compounds read high
About 27,000 (9.3%) of roughly 290,000 compounds were called active. The entries come from a sample that favours actives as a whole.
property label: inhibition (%)

molecule: O=C(CCCOc1ccc(Cl)cc1Cl)NNC(=O)C1CCC1
property label: inhibition
readout number: 27.9

molecule: CCOC(=O)c1cc2cc(C)ccc2[nH]1
property label: inhibition
readout number: 168

molecule: CCNCc1cc2cc(C)ccc2[nH]c1=O
property label: inhibition
readout number: 12

molecule: COCCN1C(=O)N(c2ccc(Cl)cc2)C(=O)C1CC(=O)Nc1cc(OC)cc(OC)c1 (centres undefined)
property label: inhibition
readout number: 0.637

molecule: Cc1nnc(NC(=O)CCCOc2ccccc2)s1
property label: inhibition
readout number: -8.1

molecule: O=C(Oc1cccc(C(=S)N2CCOCC2)c1)c1cccc(Cl)c1
property label: inhibition
readout number: -28.3

molecule: CCn1cc(C(=O)NCC(=O)NC(C)(C)CO)c(=O)c2cc3c(cc21)OCO3
property label: inhibition
readout number: -1.71

molecule: CN1CCN(Cc2ccc(OC(F)(F)F)cc2)CC1
property label: inhibition
readout number: -16.1

molecule: CC(=O)Nc1ccc(-c2cn3cccnc3n2)cc1
property label: inhibition
readout number: 52.4

molecule: Cc1ccccc1Nc1c(-c2ccccc2)nc2ncccn12
property label: inhibition
readout number: 19.2

molecule: CSc1nnc(NC(=O)c2nc(S(=O)(=O)Cc3ccc(C)cc3)ncc2Cl)s1
property label: inhibition
readout number: 85.5

molecule: Cc1cccc(-n2cc(CN3CCN(C(=O)c4ncn[nH]4)CC3)c(-c3cccc(F)c3)n2)c1
property label: inhibition
readout number: 63.8

molecule: COc1cccc(C(=O)CC(=O)C(=O)Nc2ccc([N+](=O)[O-])cc2C)c1
property label: inhibition
readout number: 4.12

molecule: COc1cccc(NCCC(=O)c2cccc([N+](=O)[O-])c2)c1
property label: inhibition
readout number: 67.3

molecule: c1ccc(-c2cn3cccnc3n2)cc1
property label: inhibition
readout number: 58.5

molecule: COc1ccc(S(=O)(=O)N(CC(=O)N/N=C/c2ccc(C(=O)O)cc2)Cc2ccccc2)cc1OC
property label: inhibition
readout number: 1.95

molecule: COc1cccc(CNC(=O)CCCC(=O)Nc2cccc([N+](=O)[O-])c2)c1
property label: inhibition
readout number: -12.3

molecule: Cc1cc(CNC(=O)c2cccc([N+](=O)[O-])c2)c2ccccc2n1
property label: inhibition
readout number: 54

molecule: S=c1[nH]nc(CSCc2ccc(Cl)cc2Cl)n1-c1ccccc1
property label: inhibition
readout number: -6.51

molecule: CC(=O)OCc1cc2cc(C)ccc2[nH]c1=O
property label: inhibition
readout number: -8.28

molecule: COCCSc1nnc(NC(=O)CCS(=O)(=O)Cc2ccccc2)s1
property label: inhibition
readout number: -28.2

molecule: Cc1ccc(S(=O)(=O)CC(=O)Nc2nnc(C)s2)cc1
property label: inhibition
readout number: -7.78

molecule: CC(C)(C)SCCNC(=O)c1cccc([N+](=O)[O-])c1
property label: inhibition
readout number: -40.1

molecule: FC(F)(F)Oc1ccc(-c2cn3cccnc3n2)cc1
property label: inhibition
readout number: 54.1

* * *

# experiment: A qHTS for Small Molecule Inhibitors of Shiga Toxin; also: 0% is about no effect
# experimental parameters: Vero cells, Shiga toxin protein synthesis inhibition reporter; at 38.7 µM
About 27,000 (9.3%) of roughly 290,000 compounds were called active. Rule as the data show it: active = inhibition mostly above about 28% (no sharp cut-off); inactive = mostly below about 43%. The sample holds actives, similar compounds and a random draw of the others, so the mix is not that of the screen.
Possible outcomes: active, inactive

compound: Cc1csc(=Nc2ccccc2)n1CCO
label class: inactive

compound: COc1ccc(CNC(=O)C(=O)NCC2OCCN2C(=O)c2ccc(OC)cc2)cc1 (stereo unspecified)
label class: inactive

compound: O=S(=O)(Nc1ccccc1)c1ccc(NS(=O)(=O)c2cccs2)cc1
label class: inactive

compound: Cc1ccccc1C(=O)N1CCC(C(=O)Nc2ccc(S(=O)(=O)N(C)C(C)C)cc2)CC1
label class: inactive

compound: Cc1ccccc1NC(=O)c1cc(S(=O)(=O)Nc2cccc(C(=O)O)c2)ccc1Cl
label class: inactive

compound: O=C1CCC(C(=O)N2CCN(c3ccccc3Cl)CC2)CN1CC1CCCCC1 (stereo unspecified)
label class: inactive

compound: CC(C)=CCCC(C)CN1CCC(n2nccc2NC(=O)c2ccccc2)CC1 (stereo unspecified)
label class: inactive

compound: Cc1csc(=NC(=O)c2ccccc2)n1CCO
label class: inactive

compound: Cc1ccc(Nc2c(F)c(F)c(F)c(F)c2C(=O)O)c(C)c1
label class: inactive

compound: O=C(NC1CC1)c1ccc2c(c1)NC(=O)c1ccccc1S2
label class: inactive

compound: C/C(=N\Nc1cccc(C(=O)O)c1)c1ccc2c(c1)Nc1ccccc1S2
label class: active

* * *

Below is a list of entries, each paired with its recorded inhibition value.
# experiment: A qHTS for Small Molecule Inhibitors of Shiga Toxin; also: 0% is about no effect
# experimental parameters: Vero cells, Shiga toxin protein synthesis inhibition reporter; at 38.7 µM, active compounds read high
Screen size: about 290,000 compounds; about 27,000 (9.3%) were called active. Only a selection was taken, and actives are over-represented in it overall.
property label: inhibition

compound: Nc1nonc1-n1nnc(C(=O)N/N=C\c2ccncc2)c1CN1CCCCC1
result: -10.8% (inactive)
//
compound: CCOc1ccc(NC(=O)C2CCN(C(=O)N3CCOc4ccccc43)CC2)cc1
result: 7.11% (inactive)
//
compound: Cc1cc(S(=O)(=O)NCc2ccccn2)c(Cl)cc1Cl
result: -4.73% (inactive)
//
compound: COc1ccc2c(c1)C(NS(=O)(=O)OCC(Cl)(Cl)Cl)CCC2 (stereo not given)
result: -7.98% (inactive)
//
compound: Cc1nc2ccc(S(=O)(=O)N(C)CC(=O)NC(C)c3ccccc3)cc2s1 (stereo not given)
result: -9.9% (inactive)
//
compound: Cc1c(NC(=O)c2c([N+](=O)[O-])cnn2C)c(=O)n(-c2ccccc2)n1C
result: -11.5% (inactive)
//
compound: COc1ccc(-c2ccc(OC)c(C3C4C=CCC(C)C4C(=O)N3Cc3ccccc3)c2)cc1C (stereo not given)
result: 31.9% (inactive)
//
compound: COc1cc(/C=C/C(=O)O)cc(S(=O)(=O)Nc2ccccc2C(=O)NCCc2ccccc2)c1OC
result: 55.3% (inactive)
//
compound: CCOc1ccccc1NC(=O)NC1CCCCCCC1
result: -4.06% (inactive)
//
compound: COc1cccc(N(CC(=O)Nc2cccc(F)c2)S(C)(=O)=O)c1
result: 12.9% (inactive)

* * *

# experiment: A qHTS for Small Molecule Inhibitors of Shiga Toxin; also: 0% is about no effect
# experimental parameters: Vero cells, Shiga toxin protein synthesis inhibition reporter; at 38.7 µM, active compounds read high
Screen size: about 290,000 compounds; about 27,000 (9.3%) were called active. The sample as a whole holds a higher share of actives than the screen did.
Respond with TRUE for inhibition values of 10% and above, FALSE for values below.

structure smiles: O=C(c1cc(-c2ccc(O)cc2)on1)N1CCOCC1
label class: TRUE
//
structure smiles: O=C(c1cc(-c2ccncc2)nc2ccccc12)N1CCC2(CC1)OCCO2
label class: TRUE
//
structure smiles: Cc1ccc(-c2cc(C(=O)N3CCC4(CC3)OCCO4)no2)cc1
label class: TRUE
//
structure smiles: Cc1c(C(=O)N2CCCc3ccccc32)oc2ccccc12
label class: TRUE
//
structure smiles: Cc1cccc(-n2c(C)nc3cc(C(=O)N4CCC5(CC4)OCCO5)ccc32)c1
label class: TRUE
//
structure smiles: CC(=O)c1ccc(NC(=O)c2ccc3c(Cl)c4c(nc3c2)CCCC4)cc1
label class: FALSE
//
structure smiles: CC(C)CCNC(=O)c1ccc2c(Cl)c3c(nc2c1)CCC3
label class: TRUE
//
structure smiles: COc1ccc(CCNC(=O)CN(C)S(=O)(=O)c2ccc3nc(C)sc3c2)cc1OC
label class: TRUE
//
structure smiles: O=C(c1cc(-c2ccc(O)cc2)on1)N1CCCc2ccccc21
label class: TRUE
//
structure smiles: Cc1noc(C)c1C(=O)N1CCOCC1
label class: FALSE
//
structure smiles: CCC(=O)N1CCCc2ccccc21
label class: TRUE

* * *

Below is a list of entries, each paired with its recorded inhibition value.
# experiment: A qHTS for Small Molecule Inhibitors of Shiga Toxin; also: 0% is about no effect
# experimental parameters: Vero cells, Shiga toxin protein synthesis inhibition reporter; at 38.7 µM, active compounds read high
In all, about 290,000 compounds went through this assay and about 27,000 (9.3%) were called active. The sample as a whole holds a higher share of actives than the screen did.

compound: COc1ccc(NC(=O)CN(C)C(=O)CNC(=O)C2CCCCC2)cc1
inhibition: 14.6% (inactive)
--
compound: O=c1c(-c2ccccc2Cl)c[nH]n1-c1ccccc1
inhibition: 9.18% (inactive)
--
compound: COc1ccc(CNC(=O)C2CC(c3ccc(C(F)(F)F)cc3)=NO2)cc1 (stereo not drawn)
inhibition: -4.35% (inactive)
--
compound: Cc1[nH]n(-c2cccc(Cl)c2)c(=O)c1-c1ccc(Cl)cc1
inhibition: 34.8% (inactive)
--
compound: Cc1cccc(N2C(=O)SC(SC(=Nc3ccccc3)Nc3ccccc3)C2=O)c1 (stereo not drawn)
inhibition: 83.9% (active)
--
compound: O=C(NCc1cccc(Cl)c1)C1CCC(=O)N(C2CC2)C1 (stereo not drawn)
inhibition: 1.78% (inactive)
--
compound: N#C/C(=C\c1cccnc1)C(=O)Nc1ccc(SC(F)F)cc1
inhibition: 36.4% (inactive)
--
compound: Cc1onc(-c2ccccc2Cl)c1C(=O)OCC(=O)c1ccccc1
inhibition: 71.6% (active)
--
compound: CCCc1cc(=O)n2[nH]c(C)c(-c3ccc(Cl)cc3)c2n1
inhibition: -5.47% (inactive)
--
compound: COc1ccc(C(=O)Nc2ccccc2C(=O)N/N=C/c2ccccc2OC)cc1
inhibition: 89.2% (active)
--
compound: O=C(N/C(=C\c1ccc([N+](=O)[O-])cc1)C(=O)N1CCOCC1)c1cccc(Br)c1
inhibition: -35.2% (inactive)
--
compound: CC(NC(=O)c1cccc2ccccc12)c1ccc2c(c1)CCCC2 (stereo not drawn)
inhibition: -3.09% (inactive)
--
compound: COc1ccc(C(=O)Nc2ccccc2C(=O)N/N=C/c2ccc(O)c(OC)c2)cc1
inhibition: -21.6% (inactive)
--
compound: CCc1ccc(NC(=O)Nc2ccncc2)cc1
inhibition: 58.2% (active)
--
compound: Cc1ccc2nc(COc3ccc(N(C)S(=O)(=O)c4ccccc4)cc3)cc(=O)n2c1
inhibition: 13.5% (inactive)
--
compound: O=C(CSc1nc2nccnc2c(=O)n1Cc1cccs1)Nc1ccccc1F
inhibition: 18.1% (inactive)
--
compound: O=Cc1ccc(OCc2cn3ccccc3n2)cc1
inhibition: 57.2% (active)
--
compound: Cc1cccc(N2C(=O)CC(SC(N)=Nc3ccccc3)C2=O)c1 (stereo not drawn)
inhibition: -8.18% (inactive)
--
compound: O=C(Nc1ccncc1)Nc1ccc(F)cc1
inhibition: 30.2% (inactive)
--
compound: COCC(=O)N1CCCC(C(=O)c2ccc(C(F)(F)F)cc2)C1 (stereo not drawn)
inhibition: -8.8% (inactive)
--
compound: Cc1onc(-c2ccccc2Cl)c1C(=O)NCCn1ccc2ccccc21
inhibition: -2.64% (inactive)
--
compound: COc1ccc(C(=O)NCc2cn3ccccc3n2)cc1
inhibition: 8.12% (inactive)
--
compound: COc1cccc(NC(=O)CN(C)C(=O)Cc2ccc(Cl)cc2Cl)c1
inhibition: -4.77% (inactive)
